# Tested on: 521955-158-R2-J5-PDC complex spheroid growth;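 also: spheroids mix tumor cells with HUVEC endothelium and human MSC stroma; luminescence taken as viability surrogate after a week of drug exposure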
# Experiment: Anticancer human tumor 521955-158-R2-J5-PDC patient-derived pancreatic carcinoma cell line growth inhibition [AhR]
# Condition Description: second compound 0.316 µM; first compound 0.0316 µM; stronger effect = lower value
Observable: viability, T/C (%)
A number alone suffices; assume %.

Below, each entry is followed by its recorded viability, T/C result.
Molecule | Unit Name | viability, T/C
CC(C)c1c(-c2ccccc2)nc2c(C#N)c[nH]n2c1=O + Cc1ccccc1N=Nc1ccc(NC(=O)c2ccnn2C)c(C)c1 | % | 115
COc1cc(C2c3cc4c(cc3C(OC3OC5COC(C)OC5C(O)C3O)C3COC(=O)C23)OCO4)cc(OC)c1O (stereo unspecified) + CC(CO)NC(=O)c1cc(-c2ccc(Cl)cc2)nn(-c2cnn(C)c2)c1=O | % | 92.3
COc1cc(Nc2ncc3c(n2)-c2ccc(Cl)cc2C(c2c(F)cccc2OC)=NC3)ccc1C(=O)O + Cc1ccccc1N=Nc1ccc(NC(=O)c2ccnn2C)c(C)c1 | % | 89.5
CC[C@@]1(O)C(=O)OCc2c1cc1n(c2=O)Cc2cc3c(CN(C)C)c(O)ccc3nc2-1 + Cc1ccccc1N=Nc1ccc(NC(=O)c2ccnn2C)c(C)c1 | % | 34.7
COc1ccc([C@@H](O)c2cc(-c3ncnc4cc(N5CCOCC5)ccc34)c(F)cc2Cl)nn1 + CC(CO)NC(=O)c1cc(-c2ccc(Cl)cc2)nn(-c2cnn(C)c2)c1=O | % | 82.4
O=C(C=Cc1cccc(S(=O)(=O)Nc2ccccc2)c1)NO + CC(CO)NC(=O)c1cc(-c2ccc(Cl)cc2)nn(-c2cnn(C)c2)c1=O | % | 114
Nc1ccn(C2OC(CO)C(O)C2(F)F)c(=O)n1 (stereo unspecified) + Cc1ccccc1N=Nc1ccc(NC(=O)c2ccnn2C)c(C)c1 | % | 66.8
COc1ccc([C@@H](O)c2cc(-c3ncnc4cc(N5CCOCC5)ccc34)c(F)cc2Cl)nn1 + Cc1cncc(-c2nc(NCCc3c[nH]c4ccccc34)c3ncn(C(C)C)c3n2)c1 | % | 118
CC1COCCN1c1cc(C2(S(C)(=N)=O)CC2)nc(-c2ccnc3[nH]ccc23)n1 (stereo unspecified) + Cc1cncc(-c2nc(NCCc3c[nH]c4ccccc34)c3ncn(C(C)C)c3n2)c1 | % | 125
O=C(C=Cc1cccc(S(=O)(=O)Nc2ccccc2)c1)NO + Cc1ccccc1N=Nc1ccc(NC(=O)c2ccnn2C)c(C)c1 | % | 102

Please examine the following record next.
Query block: GET /values?readout=viability, T/C&item= O=C(c1cc(Cc2n[nH]c(=O)c3ccccc23)ccc1F)N1CCN(C(=O)C2CC2)CC1 + CC(CO)NC(=O)c1cc(-c2ccc(Cl)cc2)nn(-c2cnn(C)c2)c1=O
Result block: 102

Ref: PubChem BioAssay AID1918998
